Consider the following compounds and their measured MIC readings.
- Test system: Mycobacterium tuberculosis
- Procedure details: Antimicrobial activity against Mycobacterium tuberculosis H37Rv ATCC 27294 after 5 days by microdilution method
- Assay type: functional
- Measurement parameters: H37Rv ATCC 27294, 120 h
Please reply with the bare figure in µM and do not write the unit itself.

[[record]]
given_smiles = "NC(=O)c1cccnc1OCc1ncc(-c2ccc(OCCCF)cc2Cl)cn1"
readout_unit = "µM"
numeric_readout = 0.12

[[record]]
given_smiles = "CNC(=O)c1cccnc1OCc1ccc(-c2ccc(OCCOC)cc2C)cn1"
readout_unit = "µM"
numeric_readout = 1.2

[[record]]
given_smiles = "COCCOc1ccc(-c2ccc(COc3nccnc3C(N)=O)nc2)c(C)c1"
readout_unit = "µM"
numeric_readout = 40.5

[[record]]
given_smiles = "COCCOc1ccc(-c2cnc(COc3ncccc3C(N)=O)nc2)c(C)c1"
readout_unit = "µM"
numeric_readout = 1.5


Consider the additional compound presented here.
Reported MIC ( `COc1ccc(-c2ccc(COc3ncccc3C(N)=O)nc2)c(C(F)(F)F)c1` ) = 39.7
